B1: HDV Ribozyme (parent)
chain: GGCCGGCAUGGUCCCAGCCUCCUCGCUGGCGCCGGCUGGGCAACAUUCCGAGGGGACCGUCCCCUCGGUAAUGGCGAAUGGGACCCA

# Variants of: B1
# experimentDescription: self-cleavage, relative activity (ratio to wild type); higher = more cleavage; co-transcriptional
Mark Not satisfied for self-cleavage values under 0.4, and Satisfied for everything at or above.

1) GGCCGGCAUGGUCCCCGCCUCCUCGCUGGCGCCGGCUGGGCAACAUUCCGGGGGGACCGUCCCCUCGGUAAUGGCGAAUGGGACCCA = Satisfied
2) GGCCGGCAUGGUCCCAGCCUCCUCGGUGGCGCCGGCUGGGCAACAUUCCGAGGGGACCGUCCCCUGGGUAAUGGCGAAUGGGACCCA = Satisfied
3) GGCCGGCAUGGUCCCAGCCUUCUCGCUGGCGCCGGCUGGGCAUCAUUCCGAGGGGACCGUCCCCUCGGUAAUGGCGAAUGGGACCCA = Not satisfied
4) GGCCGGCAUGGUCCCAGCCUCCUCGCUGGCGCCGGCUGGGCACCAUUCCGAGGGGACCUUCCCCUCGGUAAUGGCGAAUGGGACCCA = Satisfied
5) GGCCGGCAUGGUCCCAGCCUCGUCGCUGGCGCCGGCUGGGCAACAUUCCGAGGGGACCGUCCCCUCGGUAAUGGCGAGUGGGACCCA = Not satisfied
6) GGUCGGCAUGGUCCCAGCCACCUCGCUGGCGCCGGCUGGGCAACAUUCCGAGGGGACCGUCCCCUCGGUAAUGGCGAAUGGGACCCA = Not satisfied
7) GGCCGGCAUGGUCCCAGUCUCCUCGCUGGCGCCGGCUGGGCAACAUUCCGAGGGGACCGUCCCCUCGGUAAUGGCAAAUGGGACCCA = Satisfied
8) GGCCGGCAUGGUCCCAGCCUCCCCGCUGGCGCGGGCUGGGCAACAUUCCGAGGGGACCGUCCCCUCGGUAAUGGCGAAUGGGACCCA = Not satisfied
9) GGCCGGCAUGGUCCCAACCUCCUCGCUGGCGCCGGCUGGGCAACAUUCCGAGGGGACCGUCCCCUCGGUAAUGGCGAAUGGGACCCC = Satisfied
10) GGCCGGCCUGGUCCCAGCCUCCUCGCUGACGCCGGCUGGGCAACAUUCCGAGGGGACCGUCCCCUCGGUAAUGGCGAAUGGGACCCA = Not satisfied
